- System: TK − VZV 07/1 strain
- METHOD SUMMARY: microbe, parasite or virus in culture
- Assay type: cell-based, Varicella zoster virus
- MEASUREMENT PARAMETERS: Human alphaherpesvirus 3, read-out: IC50: concentration at which the virus production is inhibited by 50%
ENDPOINT: IC50 (µg/mL)
# output: bare number, implied unit µg/mL

# value of IC50, TK − VZV 07/1 strain, item COC(=O)C1=C(C)NC(C)=C(C(=O)OCC(C)(C)COc2cc(=O)oc3ccccc23)C1c1ccccc1 (stereo not shown) [Example 6] = 2

CCOC(=O)C1=C(C)NC(COc2cc(=O)oc3ccccc23)=C(C(=O)OCC)C1c1cccc([N+](=O)[O-])c1 (stereo not shown) [Example 20] on TK − VZV 07/1 strain gives IC50 = 0.07

The recorded IC50 with TK − VZV 07/1 strain for CCOC(=O)C1=C(C)NC(COc2cc(=O)oc3ccccc23)=C(C(=O)OCC)C1c1ccccc1C(F)(F)F (stereo not shown) [Example 24] was 2.5

The observed IC50 for COC(=O)C1=C(C)NC(C)=C(C(=O)OCCOc2cc(=O)oc3ccccc23)C1c1ccccc1 (stereo not shown) [Example 1] when tested with TK − VZV 07/1 strain stands at 1.5
